Assay: Toxicity by intraperitoneal administration (Irwin's test)
Format: in vivo
Details: mouse
Excerpt: The compounds tested have a remarkably low toxicity. *Dose which brings about the death of one animal out of eight in Irwin's test (S. IRWIN, Gordon Research Conference on Medicinal Chemistry, Colby Junior College, New London, 1959).
endpoint-label: Dose mg/kg (dose which brings about the death of one animal out of eight in Irwin's test) (mg/kg)
The reply should be a number in mg/kg, with the unit left off.

Before answering, review these 5 worked examples.
- molecule: "CCC1(c2ccccc2)CCN(CNC(=O)NCN2CCC(CC)(c3ccccc3)C2=O)C1=O (stereo not drawn) [compound 13]"
  value-units: "mg/kg"
  observed: 1387.5
- molecule: "O=C(NCN1CCCCCC1=O)NCN1CCCCCC1=O [Compound No. 4]"
  value-units: "mg/kg"
  observed: 930
- molecule: "O=C1CCCCCN1CNC(=S)NCN1CCCC1=O [compound 28]"
  value-units: "mg/kg"
  observed: 894
- molecule: "CC1CC(C)(C)N(CNC(=O)NCN2C(=O)C(C)CC2(C)C)C1=O (stereo not drawn) [compound 18]"
  value-units: "mg/kg"
  observed: 676.8
- molecule: "O=C(NCN1CCCCCCCC1=O)NCN1CCCC1=O [Compound No. 29]"
  value-units: "mg/kg"
  observed: 620

# input Requested read-out: Dose mg/kg (dose which brings about the death of one animal out of eight in Irwin's test). Entry: CC1CC2(CCCCC2)C(=O)N1CNC(=O)NCN1CCCC1=O (stereo not drawn) [compound 31]
# output 672.8

# input Then what about the molecule CC1CC(=O)N(CNC(=O)NCN2C(=O)CC(C)C2C)C1C (stereo not drawn) [compound 14] ?
# output 930

# input Then what about the molecule O=C(NCN1CC(c2ccccc2)CC1=O)NCN1CC(c2ccccc2)CC1=O (stereo not drawn) [compound 12] ?
# output 1215

# input Then what about the molecule O=C(NCN1CCCCCCC1=O)NCN1CCCCCCC1=O [Compound No. 5] ?
# output 1004

# input Then what about the molecule O=C(NCN1C(=O)CCC1c1ccccc1)NCN1C(=O)CCC1c1ccccc1 (stereo not drawn) [Compound No. 9] ?
# output 406

# input Then what about the molecule O=C(NCN1CCCCCCCC1=O)NCN1CCCCCCCC1=O [Compound No. 6] ?
# output 1099.5

# input Then what about the molecule O=C(NCN1CC(c2ccc(Cl)cc2)CCC1=O)NCN1CC(c2ccc(Cl)cc2)CCC1=O (stereo not drawn) [compound 16] ?
# output 1510.2

###

Test: Protection against aggressions of the hypoxic type (mortality induced by oxydipentonium chloride)
Type: in vivo, mice
Conditions: Mus musculus, ip, 1 h; mice, intraperitoneal, 0.1 mM/kg, one hour before the curarizer; control animals 3/20 (1), 1/10 (2, 18, 26), 0/10 (14, 32), 2/10 (28); read-out: Proportion of survivors, Animals treated
Returns one of yes (1) or no (0); yes (1) when responders at 100 µM, 100 µmol/kg is >= 50%.

- compound: "O=C(NCCCN1CCCC1=O)NCN1CCCC1=O [Compound No. 2]"
  group-label: "yes (1)"
- compound: "O=C1CCCCCN1CNC(=S)NCN1CCCC1=O [compound 28]"
  group-label: "no (0)"
- compound: "CC1CC(C)(C)N(CNC(=O)NCN2C(=O)C(C)CC2(C)C)C1=O (stereo not drawn) [compound 18]"
  group-label: "no (0)"
- compound: "CCCCC1CCN(CNC(=S)NCN2CCC(CCCC)C2=O)C1=O (stereo not drawn) [compound 26]"
  group-label: "yes (1)"

--- query ---
# input Hello, I need to know if O=C(NCN1CCCCCC1=O)NCN1CCCC1=O [compound 32] has measured responders at 100 µM, 100 µmol/kg not below 50%. Thanks!
# output no (0)

###

Test: Toxicity when administered intravenously or orally (LD50)
Settings: in vivo, po; rat, per os; read-out: LD50 - mM/kg
endpoint-label: LD50

- compound: "O=C(NCN1CCCC1=O)NCN1CCCC1=O [Compound No. 1, 1,3-bis[(2-oxo-pyrrolidino)methyl]-urea]"
  endpoint-label: "LD50"
  observed: "> 39000 µmol/kg"

# input Requested read-out: LD50. Entry: NC(=O)CN1CCCC1=O [piracetam, 2-oxo-1-pyrrolidineacetamide, reference compound]
# output > 70000 µmol/kg

###

Listed next: entries and their corresponding log10 of minimal effective dose.
Test: active avoidance test (memory retention; paw withdrawal reaction threshold)
Format: in vivo, rat
Conditions: sc; rat, subcutaneous, tested 24 hours later; read-out: Active dose mM/kg (minimum dose lowering the stimulus below 11 graduations; mM = millimole)
Values reflect log10 of reported minimal effective dose (µmol/kg).

Before answering, review these 4 worked examples.
- compound: "O=C1CCCCCN1CNC(=S)NCN1CCCCCC1=O"
  endpoint-label: "log10 of minimal effective dose"
  observed: -0.70
- compound: "O=C(NCN1CCCCCCC1=O)NCN1CCCCCCC1=O"
  endpoint-label: "log10 of minimal effective dose"
  observed: 0.00
- compound: "CCCCC1CCN(CNC(=S)NCN2CCC(CCCC)C2=O)C1=O (stereo not shown)"
  endpoint-label: "log10 of minimal effective dose"
  observed: -2.00
- compound: "O=C(NCN1CCCCCCC1=O)NCN1CCCC1=O"
  endpoint-label: "log10 of minimal effective dose"
  observed: 0.70

# input Requested read-out: log10 of minimal effective dose. Entry: O=C(NCN1CCCCC1=O)NCN1CCCCC1=O [Compound No. 3, 1,3-bis[(2-oxo-piperidino)methyl]-urea]
# output -0.70

# input Then what about the compound CC1CC(=O)N(CNC(=O)NCN2C(=O)CC(C)C2C)C1C (stereo not shown) ?
# output 1.00

###

Listed next: entries and their corresponding LD50.
Test: Toxicity when administered intravenously or orally (LD50)
Details: in vivo, po; rat, per os; read-out: LD50 mg/kg (rat)

- compound: "NC(=O)CN1CCCC1=O [piracetam, 2-oxo-1-pyrrolidineacetamide, reference compound]"
  LD50: "> 10000 mg/kg"

# input Requested read-out: LD50. Entry: O=C(NCN1CCCC1=O)NCN1CCCC1=O [Compound No. 1, 1,3-bis[(2-oxo-pyrrolidino)methyl]-urea]
# output > 10000 mg/kg

###

Assay: Toxicity when administered intravenously or orally (LD50)
Conditions: in vivo, iv; rat, i.v.; read-out: LD50 mg/kg (rat)
Listed next: entries and their corresponding LD50.

- compound: "O=C(NCN1CCCC1=O)NCN1CCCC1=O [Compound No. 1, 1,3-bis[(2-oxo-pyrrolidino)methyl]-urea]"
  LD50: "> 5600 mg/kg"

# input Requested read-out: LD50. Entry: NC(=O)CN1CCCC1=O [piracetam, 2-oxo-1-pyrrolidineacetamide, reference compound]
# output > 8000 mg/kg

###

Listed next: entries and their corresponding minimal effective dose.
Experiment: active avoidance test (memory retention; paw withdrawal reaction threshold)
Format: in vivo, rat
Conditions: sc; rat, subcutaneous, tested 24 hours later; read-out: Active dose mM/kg (minimum dose lowering the stimulus below 11 graduations; mM = millimole)
The reply should be a number in µmol/kg, with the unit left off.

Before answering, review these 3 worked examples.
- compound: "CC1(C)CCC(=O)N1CNC(=O)NCN1C(=O)CCC1(C)C"
  minimal effective dose [µmol/kg]: 0.02
- compound: "O=C(NCCN1CCCC1=O)NCCN1CCCC1=O [compound 20, 1,3-bis[2-(2-oxo-pyrrolidino)ethyl]-urea]"
  minimal effective dose [µmol/kg]: 0.05
- compound: "CC1C(=O)N(CNC(=O)NCN2CC(c3ccc(Cl)cc3)C(C)C2=O)CC1c1ccc(Cl)cc1 (centres unmarked)"
  minimal effective dose [µmol/kg]: 5

# input Requested read-out: minimal effective dose. Entry: CC(NC(=O)NC(C)N1CCCC1=O)N1CCCC1=O (centres unmarked) [Compound No. 11, 1,3-bis[1-(2-oxo-pyrrolidino)ethyl]-urea]
# output 0.005

# input Then what about the compound CC1CCC(=O)N1CNC(=O)NCN1C(=O)CCC1C (centres unmarked) ?
# output 5

# input Then what about the compound O=C(NCN1CCCCCCCC1=O)NCN1CCCCCCCC1=O ?
# output 5

# input Then what about the compound C=CCC1(c2ccccc2)CCN(CNC(=O)NCN2CCC(CC=C)(c3ccccc3)C2=O)C1=O (centres unmarked) ?
# output 1

# input Then what about the compound CCC(CNC(=O)NCC(CC)N1CCCC1=O)N1CCCC1=O (centres unmarked) ?
# output 0.02

###

Listed next: entries and their corresponding Dose mg/kg (dose which brings about the death of one animal out of eight in Irwin's test).
Experiment: Toxicity by intraperitoneal administration (Irwin's test)
Type: in vivo
Settings: mouse

- molecule: "O=C(NC(c1ccccc1)N1CCCC1=O)NC(c1ccccc1)N1CCCC1=O (stereo not drawn)"
  observed: "> 1219 mg/kg"
- molecule: "CCC(NC(=O)NC(CC)N1CCCC1=O)N1CCCC1=O (stereo not drawn)"
  observed: "> 930 mg/kg"
- molecule: "CC1CCN(CNC(=O)NCN2CCC(C)C2=O)C1=O (stereo not drawn)"
  observed: "> 1692 mg/kg"
- molecule: "CC(NC(=O)NC(C)N1CCCC1=O)N1CCCC1=O (stereo not drawn) [Compound No. 11, 1,3-bis[1-(2-oxo-pyrrolidino)ethyl]-urea]"
  observed: "> 846 mg/kg"
- molecule: "O=C(NCCN1CCCC1=O)NCCN1CCCC1=O [compound 20, 1,3-bis[2-(2-oxo-pyrrolidino)ethyl]-urea]"
  observed: "> 846 mg/kg"

# input Requested read-out: Dose mg/kg (dose which brings about the death of one animal out of eight in Irwin's test). Entry: O=C1CCCN1CNC(=S)NCN1CCCC1=O
# output > 804 mg/kg

# input Then what about the molecule CC1C(=O)N(CNC(=O)NCN2CC(c3ccc(Cl)cc3)C(C)C2=O)CC1c1ccc(Cl)cc1 (stereo not drawn) ?
# output > 1509 mg/kg

# input Then what about the molecule CCCCC1CCN(CNC(=O)NCN2CCC(CCCC)C2=O)C1=O (stereo not drawn) ?
# output > 10009.5 mg/kg

# input Then what about the molecule CC(CNC(=O)NCC(C)N1CCCC1=O)N1CCCC1=O (stereo not drawn) ?
# output > 930 mg/kg
